# system-tested: T1, LRRC7, Q96NW7
# T1 sequence (Q96NW7 1440-1537, limits assumed, looked up): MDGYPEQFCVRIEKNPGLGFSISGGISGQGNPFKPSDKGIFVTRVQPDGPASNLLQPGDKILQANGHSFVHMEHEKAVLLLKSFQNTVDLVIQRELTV
# test-description: holdup assay
# Design: key: below the threshold = too weak to quantify, mostly under pKd 3.1 to 4
# setup-conditions: plain residues with an end cap or a label only (N-terminal biotin on a linker: ado-ado)
measured-attribute: pKd

| binder | pKd |
| --- | --- |
| AKPSRISTVV [IQSEC2, Q5JU85] | below the threshold |
| EVEEFPETSV [TRPV3, Q8NET8] | 4.08 |
| RRISSLESEV [GRIN2C, Q14957] | 4.05 |
| TASPAKETSF [SLC2A7, Q6PXP3] | below the threshold |
| MLSKQSESAI [FLVCR1, Q9Y5Y0] | below the threshold |

QUERY: Need pKd, item YLEPVLSSEL [ATP2A2, P16615;P16615-3]
RESULT: below the threshold

QUERY: Can you handle RRRESYSTTV [EVI5, O60447] next?
RESULT: below the threshold

QUERY: Next binder up: DDPSTAETVL [ABCA7, Q8IZY2]
RESULT: below the threshold
